- Target Or Test System: CYP2D6 (Homo sapiens)
- Construct: purchased Corning Gentest
- Sequence (P10635 whole entry): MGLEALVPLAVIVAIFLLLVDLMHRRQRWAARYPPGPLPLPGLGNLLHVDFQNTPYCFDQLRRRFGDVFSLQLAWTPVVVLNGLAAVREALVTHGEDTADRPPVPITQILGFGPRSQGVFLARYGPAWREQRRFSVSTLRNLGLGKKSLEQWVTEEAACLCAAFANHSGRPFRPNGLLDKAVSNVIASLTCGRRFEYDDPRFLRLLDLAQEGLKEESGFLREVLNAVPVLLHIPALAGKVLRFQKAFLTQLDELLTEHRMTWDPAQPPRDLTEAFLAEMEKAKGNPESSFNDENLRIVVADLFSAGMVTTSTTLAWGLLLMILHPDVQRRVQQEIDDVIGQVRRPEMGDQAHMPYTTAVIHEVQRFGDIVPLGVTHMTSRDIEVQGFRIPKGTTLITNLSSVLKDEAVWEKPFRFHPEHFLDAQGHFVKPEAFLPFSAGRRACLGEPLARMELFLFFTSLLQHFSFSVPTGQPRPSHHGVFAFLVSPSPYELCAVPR
- Experiment Description: Metabolic stability in Human CYP2D6 Supersomes
- Format: in vitro ADME
- Condition: human, recombinant human CYP2D6 Supersomes, pH 7.4, Table 4a; average of Experiments 1 and 2; read-out: t1/2 (minutes) Ave ± SD
Readout Kind: half-life at 0.25 μM (min)
One number for each entry, in min.

Ask | Lookup: half-life at 0.25 μM / CYP2D6 (Homo sapiens) / CCCCCCCC(=O)N[C@H](CN1CCCC1)[C@H](O)c1ccc2c(c1)OCCO2 [Eliglustat (D0), reference compound]
Reply | 6.7
